Reference source: patent US20180291082A1

Target: T1, HLA-B*44:02 (human)
T1 construct: Peptide-receptive MHC monomer made by UV cleavage of a UV-sensitive peptide
Experiment: UV-ligand exchange, anti-b2m ELISA; exchange yield grade (+ >10%, ++ >20%, +++ >50, ++++ >75%)
Below, each entry is listed with its recorded peptide exchange yield.
quantity_measured: peptide exchange yield

binder	quantity_measured	result
GEELGFASL	peptide exchange yield	20 to 50%
EEVDVPIKLY	peptide exchange yield	20 to 50%
SEPINIIDAL	peptide exchange yield	20 to 50%
DEYLIPQQGF	peptide exchange yield	50 to 75%
TEVLDSHIHAY	peptide exchange yield	20 to 50%
AEKQTPDGRKY	peptide exchange yield	20 to 50%
TTMDQKSLW	peptide exchange yield	10 to 20%
IEALLESSL	peptide exchange yield	20 to 50%
EEFETLKEF	peptide exchange yield	20 to 50%
AEKDGKLTDY	peptide exchange yield	20 to 50%
AEQPDGLIL	peptide exchange yield	20 to 50%
MELLLVNKL	peptide exchange yield	50 to 75%
SEVPVARVW	peptide exchange yield	> 75%
AEIHTAEI	peptide exchange yield	20 to 50%
EEAKQVLFL	peptide exchange yield	20 to 50%
DESEKTTKSF	peptide exchange yield	20 to 50%
EEAPLVTKAF	peptide exchange yield	20 to 50%
AEAVLKTLQEL	peptide exchange yield	50 to 75%
TEKEMIQKL	peptide exchange yield	20 to 50%
GEHTSKATL	peptide exchange yield	20 to 50%
AEERAEAKKKF	peptide exchange yield	20 to 50%
LQEEKVPAIY	peptide exchange yield	10 to 20%
SENIVIQVY	peptide exchange yield	20 to 50%
KEITGFLLI	peptide exchange yield	50 to 75%
AENLFRAFL	peptide exchange yield	50 to 75%
NEISTFHNL	peptide exchange yield	50 to 75%
AEHDAVRNAL	peptide exchange yield	50 to 75%
YEVDTVLRY	peptide exchange yield	20 to 50%
EELLHGQLF	peptide exchange yield	20 to 50%
EEESLLTSF	peptide exchange yield	50 to 75%
QEVLLQTFL	peptide exchange yield	> 75%
KESDGFHRF	peptide exchange yield	50 to 75%
